# growth values compiled below
Test system: UACC-62 melanoma
Assay: NCI-60 one-dose screen, 48 h (100 = growth as untreated, 0 = no growth, -100 = all killed)
Settings: 10 µM unless noted
This is part of a sample that, as a whole, favours compounds with a hit. Of some 83,000 tested, about 20% had one in any assay. The source made the active and inactive calls. Rule for the calls: active = growth percent below 10; inactive = the rest.
MEASURED_PARAMETER: growth

- O=S(=O)(Nc1ccc(Cl)c(C(F)(F)F)c1)c1ccc(-c2cnc(C3CC3)o2)cc1: -10.2% (active)
- N#Cc1ccc(O)c(C2=NCC(c3ccccc3)O2)c1 (configuration not stated): 37.8% (inactive)
- Cc1cc(N2CCCCC2)cc(C)c1-c1csc(NC(=O)c2ccncc2)n1: 45.1% (inactive)
- COc1ccc(C2=Nc3c(N)nc(N)nc3NC(c3cccc(Nc4ccnc5cc(C(F)(F)F)ccc45)c3)C2)cc1 (configuration not stated): 88.9% (inactive)
- COc1cc(C2c3cc(OC(C)=O)c(OC)cc3CC3C(=O)OCC32)ccc1OC(C)=O (configuration not stated): 103% (inactive)
- Fc1cc2c(cc1Cl)N(c1ncnc3ccc(-c4ccc5n[nH]nc5c4)cc13)CC2: 78.7% (inactive)
- CCOC(=O)C1=C(c2ccccc2)N=C2SC=C(c3ccc(Cl)cc3)N2C1c1ccc(Br)cc1 (configuration not stated): 67.7% (inactive)
- COc1ccc(Nc2ncc(Br)c(NCCCNC(=O)c3cccs3)n2)cc1: 45.7% (inactive)
- CCCC/C=C/[C@@H]1C[C@H]1CCO: 92.4% (inactive)
- COc1cc2ncnc(Nc3ccc(F)c(Cl)c3)c2cc1OCC(=O)N1CCN(c2ccccc2)CC1: 92.8% (inactive)
- O=C1/C=C/[C@@H](O)[C@@H]2C[C@@H](O)C[C@H]2/C=C/CCC[C@H](CCc2ccccc2)O1: 23.7% (inactive)
- O=C(NNC(=O)c1ccc(NC(=O)c2ccccn2)cc1)Nc1ccc([N+](=O)[O-])cc1: 94% (inactive)
- CC1CCc2c(C(=O)Nc3ncc(Cc4cccc([N+](=O)[O-])c4)s3)csc2C1 (configuration not stated): 13.9% (inactive)
- CCCCCOC(=O)c1c(C)[nH]c(/C=C2\N=C(c3ccc[nH]3)C=C2OC)c1C: -70.9% (active)
- COC(CC(F)F)c1cn(S(=O)(=O)c2ccc(C)cc2)c2ccccc12 (configuration not stated): 32.1% (inactive)
- COc1cccc(CNc2ccc3ncnc(Nc4ccc(F)c(Cl)c4)c3c2)c1: 81.1% (inactive)
- C[C@@H](CO)[C@@H]1CCC=C2CC[C@]3(C)[C@H](CC[C@@H]4[C@@]5(C)CCCNC(C)(C)[C@@H]5CC[C@]43C)[C@H]21: 80.3% (inactive)
- O=C(Nc1ccc(Oc2cccc(Cl)c2)c(Cl)c1)c1cnccn1: 28.4% (inactive)
- C=CCOC(=O)Nc1cccn([C@H](Cc2ccccc2)C(=O)NCCC(C)C)c1=O: 97.1% (inactive)
- O=C1c2ccc3c4c5ccc(c24)C(=O)N1CCCOCCCCOCCCNCc1ccc(cc1)CNCCCOCCCCOCCCN(C3=O)C5=O: -90.3% (active)
- CC(=O)N1N=C(c2ccc(Nc3nc(Nc4ccccc4)nc(Nc4ccccc4)n3)cc2)CC1c1cccc([N+](=O)[O-])c1 (configuration not stated): 84% (inactive)
- C=C(C)[C@@H]1CC[C@]2(C(=O)N3CCOCC3)CC[C@]3(C)[C@H](CC[C@@H]4[C@@]5(C)C/C(=C/c6ccncc6)C(=O)C(C)(C)[C@@H]5CC[C@]43C)[C@@H]12: 43.1% (inactive)
- COc1c(C(=O)Nc2ccc(C)c(Br)c2)ccc2ccccc12: 71.6% (inactive)
- O=C1NC2(Nc3ccccc31)C(=O)Nc1c(Cl)cc(Cl)cc12 (configuration not stated): 101% (inactive)
- O=c1[nH]c(Cc2nc3ccccc3s2)nc2cc(Br)ccc12: 2.81% (active)
- COc1cc(/C=C/C(=O)c2ccc(F)cc2)ccc1OCCCCOc1ccc(/C=C/C(=O)c2c(C)nc3ccccc3c2C)cc1OC: 73.1% (inactive)
- O=C(C[C@]1(O)C(=O)Nc2ccccc21)c1cccc(C(F)(F)F)c1: 78.3% (inactive)
- O=C(O)c1ccc(-n2cc(/C=N/Nc3ccccc3)c(-c3ccc(F)cc3F)n2)cc1: -14.3% (active)
- CC1=NC2=Nn3c(c4cnn(-c5ccccc5)c4n/c3=N\N)NN2C(c2ccccc2)=C1: 77.6% (inactive)
- COC(=O)Nc1nc2ccc(S(=O)c3ccccc3)cc2[nH]1 (configuration not stated): 52.4% (inactive)
- Cc1c(O)cc(-c2cnc(Nc3ccccc3)s2)c(O)c1C: 78.1% (inactive)
- O=S(=O)(Nc1ccc(F)cc1F)c1ccc(-c2cnc(C3CC3)o2)cc1: 27.4% (inactive)
- COC1=CC(c2ccc[nH]2)=N/C1=C\c1[nH]c(C)c(CC(=O)NCc2ccccc2)c1C: -30.5% (active)
- COc1ccc(OC)c(-c2nc(SCC(=O)c3ccc(C#N)cc3)[nH]c(=O)c2C#N)c1: 94.7% (inactive)
- CCSc1nc2scc(C)c2c(=O)[nH]1: 94.1% (inactive)
- COc1ccc(C(=O)c2cc3c(N)c(C(=O)Nc4ccc(C)cc4)sc3nc2C)cc1: 30.6% (inactive)
- COC(=O)[C@]12CCC(C)(C)C[C@H]1[C@H]1/C(=N/OCCc3nn[nH]n3)C[C@@H]3[C@@]4(C)CC[C@H](OC(C)=O)C(C)(C)[C@@H]4CC[C@@]3(C)[C@]1(C)CC2: 13.2% (inactive)
